Exercise: for every item that follows, state its recorded growth inhibition.
Test name: NCI Yeast Anticancer Drug Screen. Data for the mlh1 rad18 strain (AID 175)
Condition context: S. cerevisiae mlh1 rad18 strain growth inhibition; at 50.0 µM (retest, dose inferred, filed as 5.0); stronger effect = higher value
Compounds without any hit were thinned out: in the full panel of roughly 79,000, 15% have a hit.
Express your answer in %, writing the number without its unit.

Query: Which growth inhibition value belongs to CCCOC(=O)COc1ccccc1C(=O)OCCC ?
Result: 13

Query: Input Cc1ccccc1Sc1ncnc2ccccc12
Result: 48

Query: Input S=c1n(-c2ccc(Cl)cc2)c2nc3ccccc3nc(/c2=N\Nc2cc(Cl)ccc2Cl)n1-c1ccc(Br)cc1
Result: 4

Query: Input OC1CC2OC2C1O (stereo not given)
Result: 2

Query: Input CC1C2CC(C(S(=O)(=O)N3CCOCC3)/C2=N\O)C1(C)C (stereo not given)
Result: -18

----------
Test name: NCI Yeast Anticancer Drug Screen. Data for the sgs1 mgt1 strain (AID 161);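 further: 0% = growth of cultures given vehicle only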
Condition context: S. cerevisiae sgs1 mgt1 strain, at 50.0 µM, stronger effect = higher value
Method: Growth inhibition of yeast strains with defined genetic alterations is measured as a screen for potential anti-cancer activity. Selected strains with alterations in DNA damage repair or cell cycle control were exposed to compounds and growth inhibition was measured relative to vehicle treated controls. The strain used in this assay is sgs1 mgt1
This is part of a sample that, as a whole, favours compounds with a hit. Of some 79,000 tested, about 15% had one in any assay.
Exercise: for every item that follows, state its recorded growth inhibition.
Express your answer in %, writing the number without its unit.

Query: Which growth inhibition value belongs to C=CCCCCCCCCC(=O)OCC=C ?
Result: 16.4

Query: Input CCCCN(CCCC)CC(O)c1cc(-c2ccc(Cl)cc2)nc2cc(C)ccc12 (stereo unspecified)
Result: 99.6

Query: Input OC(c1ccccc1)(c1ccccc1)C1CCCCC1
Result: 40.1

Query: Input O=S(=O)(Nc1ccccc1)c1ccccc1C(O)(c1ccccc1)c1ccccc1
Result: 92.1

Query: Input O=C(O)/C(=C\c1ccc(Cl)cc1)c1ccc(C(F)(F)F)cc1[N+](=O)[O-]
Result: 96

Query: Input CCCCCCCCCC[N+](C)(C)CCC[N+](C)(C)CCCCCCCCCC
Result: 88.3

----------
Exercise: for every item that follows, state its recorded growth inhibition.
Test name: NCI Yeast Anticancer Drug Screen. Data for the mec2-1 strain (AID 157)
Condition context: S. cerevisiae mec2-1 strain, at 50.0 µM, stronger effect = higher value
This is part of a sample that, as a whole, favours compounds with a hit. Of some 79,000 tested, about 15% had one in any assay. The source made the active and inactive calls. Cut-off read from the data, not from the text of the source: active = growth inhibition above about 70%; inactive = the rest. Where a SMILES comes first, the peptide text is derived from it. The star is where a group is joined. Cbz = O=C(OCc1ccccc1)*; Boc = CC(C)(C)OC(=O)*; OSu = O=C1CCC(=O)N1O*; Bn = c1ccc(C*)cc1

Query: Which growth inhibition value belongs to Cc1c(Cl)c(Cl)cc([N+](=O)[O-])c1Cl ?
Result: 37.6% (inactive)

Query: Input COc1ccc(Oc2cc3c[n+](C)ccc3cc2OC)cc1
Result: 99% (active)

Query: Input CC12CCC(O)CC1CCC1C2CCC2(C)C(NC(=O)N(CCCl)N=O)CCC12 (stereo not drawn)
Result: 80.5% (active)

Query: Input C(=N\Nc1c2ccccc2nc2ccccc12)/c1ccc2c(c1)OCO2
Result: 84.8% (active)

Query: Input Cc1cccc(N2C(c3ccccc3)c3ccc(C)cc3NS2=O)c1 (stereo not drawn)
Result: 98.8% (active)

Query: Input O=C1C=C(OCC=C(C(F)(F)F)C(F)(F)F)C(=O)c2ccccc21
Result: 64.8% (inactive)

Query: Input CCCCCCCCCCCCCCCC1(OC)C[N+](C)(C)CCO1 (stereo not drawn)
Result: 99.7% (active)

Query: Input O=C(/C=N/O)c1c(-c2ccccc2)[nH]c(-c2ccccc2)c1-c1ccccc1
Result: 77.8% (active)

Query: Input C[Si](C)(CCC(=O)O)O[Si](C)(C)CCC(=O)O
Result: 99.7% (active)

Query: Input O=C(CCCl)Nc1ccc(CCC(=O)c2ccccc2NC(=O)CCCl)cc1
Result: 64.4% (inactive)

Query: Input CCCCCCCCCCCC(=O)NCCc1ccc(O)c(O)c1
Result: 98.5% (active)

Query: Input CCCCC#C[I+]c1ccccc1
Result: 93% (active)

Query: Input O=[N+]([O-])c1ccccc1Oc1ccc([N+](=O)[O-])c(C(F)(F)F)c1
Result: 82.7% (active)

Query: Input O=C(c1ccccc1)N(C(=S)N(C(=O)c1ccccc1)c1ccccc1)c1ccccc1
Result: 99.7% (active)

Query: Input O=C1c2ccccc2C(=O)C2(C(c3ccccc3)c3ccccc3)N=NCC12 (stereo not drawn)
Result: 11.9% (inactive)

Query: Input COc1ccc(C(=O)C(Br)CS(=O)(=O)c2ccc(C)cc2)cc1 (stereo not drawn)
Result: 99.4% (active)

Query: Input Nc1ccc(Oc2ccccc2)cc1
Result: 33.9% (inactive)

Query: Input CCCN(CCC)Cc1cc2c(cc1O)CC[C@@H]1[C@@H]2CC[C@]2(C)C(=O)CC[C@@H]12
Result: 51.8% (inactive)

Query: Input O=C(NCCCN1CC2CCCC2C1)C(C1CCCCC1)C1CCCCC1 (stereo not drawn)
Result: 99.5% (active)

Query: Input Clc1sc2ccccc2c1Cl
Result: -11.9% (inactive)

Query: Input O=C1OC(c2ccc(O)cc2)Sc2ccccc21 (stereo not drawn)
Result: 74.2% (active)

Query: Input CCCc1cc2c(cc1COc1ccccc1C(=O)O)OCO2
Result: 59.8% (inactive)

Query: Input CC(=O)OCc1ccc2c(c1)C(O)NC(=O)O2 (stereo not drawn)
Result: 21.9% (inactive)

Query: Input C/C(=N/NC(=O)C[n+]1ccccc1)C(CN(CC(C)C)CC(C)C)C(=O)Nc1ccc(C)cc1C (stereo not drawn)
Result: 40.2% (inactive)

Query: Input CC1(C)[C@H]2CC[C@]1(C)[C@H](OC(=O)NNC(=O)O[C@@H]1C[C@@H]3CC[C@@]1(C)C3(C)C)C2
Result: 22.4% (inactive)

Query: Input COc1ccccc1NC(=O)CC(=O)N1N=C(C)C(N=Nc2ccc(I)cc2)C1=O (stereo not drawn)
Result: 11.1% (inactive)

Query: Input c1ccc(CN2CCC3(CC2)SSC2(CCN(Cc4ccccc4)CC2)S3)cc1
Result: 23.4% (inactive)

Query: Input COc1cc2c(cc1O)C(O)CCCC2 (stereo not drawn)
Result: -14.6% (inactive)

Query: Input CCN(CC)CCOc1ccc(C=C2c3ccccc3-c3ccccc32)cc1
Result: 99.2% (active)

Query: Input CSc1cc(N)nc(N)n1
Result: 79.3% (active)

Query: Input CCCCC1C(=O)N2c3ccccc3-c3ccccc3N2C1=O
Result: 6.8% (inactive)

Query: Input O=C1C(c2ccccc2)=[N+]([O-])c2cc([N+](=O)[O-])c(/C(Cl)=C/c3ccccc3)cc21
Result: 94.5% (active)

Query: Input CC(C)(C)OC(=O)NC(Cc1ccc(OCc2ccccc2)cc1)C(=O)NC(CCCCNC(=O)OCc1ccccc1)C(=O)ON1C(=O)CCC1=O (stereo not drawn) (Boc-Tyr(Bn)-Lys(Cbz)-OSu; configuration not given here)
Result: 48.5% (inactive)

Query: Input COC(=O)/C(=C\c1cn(C(C)=O)c2ccccc12)P(=O)(OC)OC
Result: 62.6% (inactive)

Query: Input CCN(CC)CCC(=O)NC1c2ccc(Cl)cc2Oc2c(C)cccc21 (stereo not drawn)
Result: -14.2% (inactive)

Query: Input COC1(OC)C2(Cl)C(Cl)=C(Cl)C1(Cl)C1C2C2CC1(C(=O)O)c1ccccc12 (stereo not drawn)
Result: 93.4% (active)

Query: Input CN(/N=C\c1ccc2ccccc2c1)C1=NCCCN1
Result: 33.6% (inactive)

Query: Input C(=C\[P+](c1ccccc1)(c1ccccc1)c1ccccc1)/c1ccccc1
Result: 99.7% (active)

----------
Test name: NCI Yeast Anticancer Drug Screen. Data for the sgs1 mgt1 strain (AID 161);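 further: 0% = growth of cultures given vehicle only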
Condition context: S. cerevisiae sgs1 mgt1 strain, at 50.0 µM (retest, dose inferred, filed as 5.0), stronger effect = higher value
Compounds without any hit were thinned out: in the full panel of roughly 79,000, 15% have a hit.
growth inhibition below 80% gives No; growth inhibition at or above it gives Yes.

Query: // inclusive: growth inhibition at least 80%? input: CCOC(=O)/C(=C\c1ccccc1)C(=O)CCN1CCOCC1
Result: Yes

Query: Input CCCOC(=O)CSC#N
Result: Yes

Query: Input CCOC(=O)C(NC(C)=O)[CH](c1ccc(OC)cc1)[Sn]([c]1ccccc1)([c]1ccccc1)[c]1ccccc1 (stereo not given)
Result: Yes

Query: Input CCN(CCN1C(=O)C2CCCCC2C1=O)c1ccc(N=O)c(C)c1 (stereo not given)
Result: Yes

Query: Input COc1cc(CC(=O)O)c(Cc2ccc3c(c2)Cc2ccccc2-3)cc1OC
Result: Yes

Query: Input O=C(Oc1c(Cl)cc(Cl)c(Cl)c1Cl)Oc1c(Cl)cc(Cl)c(Cl)c1Cl
Result: No

Query: Input O=C(CCC(O)(c1ccccc1)c1ccccc1)c1ccccc1
Result: Yes

Query: Input CC(C)C1=CC(=O)C(C)(C2C(O)CC3(C)C4CC=C5C(CCC(O)C5(C)C)C4(C)C(=O)CC23C)O1 (stereo not given)
Result: No

Query: Input O=C1CCCCO1
Result: No

Query: Input Cc1cc(C(=O)CBr)c(CN2C(=O)c3ccccc3C2=O)c(=O)n1C
Result: Yes

Query: Input CCOC(=O)C(=O)N1C(C)=C(C(=O)OCC)CC(C(=O)OCC)=C1C
Result: No

Query: Input CCCCCCCCC(=O)NCCCNCCCNC(=O)CCCCCCCC
Result: No

Query: Input CC1(C)[C@@H]2CC[C@]1(C)[C@@H](OC(=O)CSC#N)C2
Result: Yes

Query: Input COc1ccc(N=Cc2cc(Br)cc(Br)c2O)cc1.COc1ccc(N=Cc2cc(Br)cc(Br)c2O)cc1.[Co]
Result: Yes

Query: Input c1ccc(-c2c3ccccc3cc3ccc4ccccc4c23)nc1
Result: No
